Assay: qHTS Assay for Identification of Small Molecule Agonists for Hypoxia Response Element Signaling Pathway (AID 914); note: % of control where 0% means no effect
Settings: ME-180 (cervical carcinoma) HRE-bla reporter, beta-lactamase ratio, CoCl2, 17 h; active compounds read high
Results filed as inconclusive are left out.
RECORDED METRIC: activation (%)
Answers are plain numbers, in %.

Record excerpt, results attached:
{"COMPOUND": "Cc1c(/C(O)=C2\\C(=O)C(=O)N(CCCN(C)C)C2c2ccccc2)cnn1-c1ccccc1 (stereo not drawn)", "READOUT UNITS": "%", "NUMBER": 3.31}
{"COMPOUND": "COc1ccc2c(c1OC)C(=O)OC2c1c(O)nc(SC)n(-c2ccccc2)c1=O (stereo not drawn)", "READOUT UNITS": "%", "NUMBER": 1.25}
{"COMPOUND": "CCOc1cccc(N2C(=O)CC(N(CCc3ccc(OC)c(OC)c3)C(=O)CC)C2=O)c1 (stereo not drawn)", "READOUT UNITS": "%", "NUMBER": 11}
{"COMPOUND": "CC(=O)CCn1c(=O)n(CCC(C)=O)c(=O)n(CCC(C)=O)c1=O", "READOUT UNITS": "%", "NUMBER": 11.1}
{"COMPOUND": "Cc1cc(C)nc(NC2=NCC(=O)N2c2ccc(Cl)cc2)n1", "READOUT UNITS": "%", "NUMBER": 16.5}

Kindly give each listed record's activation.
1. Cc1cccc(N2CC(=O)N(c3cccc(C)c3)CC2=O)c1
2. COc1ccc(C2=Nn3c(nnc3-c3ccccn3)SC2)cc1OC
3. CCSC(SCC)[C@H](O)[C@@H](O)[C@H](O)[C@H](O)CO
4. CNc1oc(-c2ccccc2Cl)nc1C#N

1.3
-20.2
9.48
10.7

Kindly give each listed record's activation.
1. Cc1nn(C)cc1C1C2=C(CC(C)(C)CC2=O)OC2=C1C(=O)CC(C)(C)C2
2. C=C(C)CN(CC)CCC(=O)Nc1ccc(OC)cc1OC
3. COC(=O)c1ccc(C(=O)OC)c(NC(=O)c2cc3ccccc3o2)c1
4. CCCC(=O)N(Cc1cc2ccccc2[nH]c1=O)c1ccccc1OC

1: 1.79; 2: -8.71; 3: -0.252; 4: -13.3

* * *

Test system: JCK
Experiment: qHTS profiling for inhibitors of Plasmodium falciparum proliferation (AID 504749); note: nearly all actives have a fitted effect of over 60% in size
Details: P. falciparum in erythrocytes, SYBR Green DNA, 72 h; series mostly up to 28.7 µM
Results filed as inconclusive are left out. Activity calls are given as the source filed them. The call rests on the fitted dose curve; in most records, active means well fitted inhibition curve with a large enough effect; inconclusive means small, poorly fitted or top-dose-only effect; inactive means flat fitted curve, though single readings scatter.
// classify into 1 (yes) for active, 0 (no) for inactive

{"COMPOUND": "C=C1CCC(O)C/C1=C/C=C1\\CCC[C@]2(C)[C@@H]([C@H](C)/C=C/[C@H](C)C(C)C)CC[C@@H]12 (stereo not given in full)", "STUDY SYSTEM": "JCK", "GROUP": "1 (yes)"}
{"COMPOUND": "C=CCN1CC(C(=O)N(CCCN(C)C)C(=O)NCC)CC2c3cccc4[nH]cc(c34)CC21 (stereo not given)", "STUDY SYSTEM": "JCK", "GROUP": "0 (no)"}
{"COMPOUND": "C=C1/C(=C\\C=C2/CCC[C@]3(C)[C@@H]([C@H](C)/C=C/[C@@H](O)C4CC4)CC[C@@H]23)C[C@@H](O)C[C@@H]1O", "STUDY SYSTEM": "JCK", "GROUP": "0 (no)"}
{"COMPOUND": "Oc1cc2cc(CCN3CCN(c4nsc5ccccc45)CC3)c(Cl)cc2[nH]1", "STUDY SYSTEM": "JCK", "GROUP": "0 (no)"}

// next entry
What call does the record list for COC(c1ccccc1)(c1ccccc1)C(Oc1nc(C)cc(C)n1)C(=O)O (stereo not given) ?
0 (no)

* * *

Molecular target: Cytochrome P450 2C19 (Homo sapiens) (UniProt P33261)
Sequence (P33261 whole entry, looked up): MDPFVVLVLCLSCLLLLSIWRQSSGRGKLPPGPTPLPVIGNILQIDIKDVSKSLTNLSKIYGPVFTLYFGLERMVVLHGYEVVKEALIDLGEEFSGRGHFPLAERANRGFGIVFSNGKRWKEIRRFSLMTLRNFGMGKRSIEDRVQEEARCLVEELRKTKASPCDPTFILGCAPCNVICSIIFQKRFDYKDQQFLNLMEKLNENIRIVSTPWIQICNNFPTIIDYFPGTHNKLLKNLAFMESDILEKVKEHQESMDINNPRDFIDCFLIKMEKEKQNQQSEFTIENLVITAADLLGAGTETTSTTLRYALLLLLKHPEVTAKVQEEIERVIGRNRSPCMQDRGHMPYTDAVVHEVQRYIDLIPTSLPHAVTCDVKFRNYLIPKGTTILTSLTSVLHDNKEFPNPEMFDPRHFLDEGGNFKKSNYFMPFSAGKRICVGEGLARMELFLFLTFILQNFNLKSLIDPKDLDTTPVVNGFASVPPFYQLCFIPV
Assay: qHTS Assay for Inhibitors and Substrates of Cytochrome P450 2C19 (AID 899); note: nearly all actives have a fitted effect of over 60% in size
Settings: recombinant CYP2C19, luciferin-H EGE luminescence; series mostly up to 57.1 µM
Results filed as inconclusive are left out. Active and inactive are the calls of the source. Calls come from the whole dose curve; as a rule, active = well fitted inhibition curve with a large enough effect; inconclusive = small, poorly fitted or top-dose-only effect; inactive = no such curve, though single readings can be large or run the other way.
// classify into true (1) (active), false (0) (inactive)

{"STRUCTURE SMILES STRING": "CC(C)C[C@@H](CC(=O)N[C@@H](CCC(=O)O)CC(=O)O)NC(=O)[C@@H]1CCCC[C@H]1NC(=O)C[C@H](CCCN)NC(=O)C[C@H](CO)NC(=O)[C@@H]1CNCC[C@H]1N", "GROUP": "false (0)"}

What call does the record list for CN1CCc2cc3c(cc2C(=O)Cc2ccc4c(c2C1)OCO4)OCO3 ?
true (1)

What call does the record list for C=C1CC[C@H]2C(C)(C)[C@H](O)CC[C@]2(C)[C@@H]1COc1ccc2ccc(=O)oc2c1 ?
true (1)

What call does the record list for S=C(Nc1ccccc1)Nc1ccccc1C#Cc1ccccc1 ?
true (1)

What call does the record list for CC1(C)[C@@H](O)CC[C@@]2(C)[C@H]1CC[C@]1(C)[C@H]2C(=O)C=C2[C@@H]3C[C@@](C)(C(=O)O)CC[C@]3(C)CC[C@@]21C ?
false (0)

What call does the record list for c1ccc2c(c1)Cc1cc3ccccc3nc1-2 ?
true (1)

What call does the record list for COC(=O)[C@@]1(Cc2ccc(OC)cc2)[C@H]2c3cc(C(=O)N4CCCC4)n(CCc4c[nH]c5cc(F)ccc45)c3C[C@H]2CN1C(=O)c1ccccc1 ?
true (1)

* * *

Experiment: NFAT Signaling Pathway (AID 444);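 note: carbachol stimulus at about its EC50 of 1 µM final; % is set by controls: 0 for no effect and ±100 for the full control effect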
Conditions: Jurkat NFAT-bla M1, carbachol, beta-lactamase ratio, 5 h; at 17.2 µM (top of the series) unless noted
Results filed as inconclusive are left out.
Would you mind telling me the reported activity change, negative = inhibition of each entry?
Answers are plain numbers, in %.

Record excerpt, results attached:
{"MOLECULE": "CCCNC1=C(C)C(=O)CC1", "activity change, negative = inhibition [%]": -5.45}
{"MOLECULE": "Cc1c(C(=O)O)c(=S)sn1CCOc1ccccc1", "activity change, negative = inhibition [%]": 10.4}
{"MOLECULE": "COc1cc(C2C(C#N)=C(N)Oc3cc(C)n(CCN4CCOCC4)c(=O)c32)cc(OC)c1OC (stereo not given)", "activity change, negative = inhibition [%]": 6.98}
{"MOLECULE": "COc1ccc(/C(O)=C2\\C(=O)C(=O)N(CCN(C)C)C2c2cccc(OC)c2OC)cc1Cl (stereo not given)", "activity change, negative = inhibition [%]": 11.9}
{"MOLECULE": "CCOC(=O)c1c(-c2cccs2)csc1NC(=O)CCCC(=O)O", "activity change, negative = inhibition [%]": -2.47}
{"MOLECULE": "COc1cccc(C2=CC(c3ccccc3)n3ncnc3N2)c1 (stereo not given)", "activity change, negative = inhibition [%]": -15.1}

Kindly give each listed record's activity change, negative = inhibition.
1. COc1cc(C)nc(Oc2ccc(=O)n(C)n2)n1
2. COc1ccc(OCC(O)CN2C(=O)NC(C)(C)C2=O)cc1 (stereo not given)
3. C=C(C)CN1CCN(c2c(CCC#N)c(C)c(C#N)c3nc4ccccc4n23)CC1
4. CC(=O)N1CCN(C2c3cccc4cccc(c34)C2NS(=O)(=O)c2ccccc2)CC1 (stereo not given)
5. Cc1cc(C)cc(CC2CC(=O)N(c3cc(C)on3)C2=O)c1 (stereo not given)
6. CCOC(=O)c1c(C)[nH]c(/C(C)=N/O)c1C

1: -8.27; 2: 0.93; 3: 20; 4: -9.38; 5: -3.65; 6: 3.09

Kindly give each listed record's activity change, negative = inhibition.
1. COc1ccc(C2C(C#N)=C(N)Oc3n[nH]c(C)c32)cc1CSc1ccccn1 (stereo not given)
2. COc1ccc(/C(O)=C2/C(=O)C(=O)N(CCN(C)C)C2c2ccccn2)cc1OC (stereo not given)

1. 13.4
2. -3.03

Answer with the recorded activity change, negative = inhibition of Cc1cccc2c1NC(C)CC2C (stereo not given) only.
11.8

* * *

Test system: CP217
Experiment: qHTS profiling for inhibitors of Plasmodium falciparum proliferation (AID 504749); note: nearly all actives have a fitted effect of over 60% in size
Conditions: P. falciparum in erythrocytes, SYBR Green DNA, 72 h; series mostly up to 28.7 µM
Inconclusive results are not listed. Activity calls are given as the source filed them. The call rests on the fitted dose curve; in most records, active means well fitted inhibition curve with a large enough effect; inconclusive means small, poorly fitted or top-dose-only effect; inactive means flat fitted curve, though single readings scatter.

{"COMPOUND": "CC1(C)OC[C@@H]2O[C@@]3(C(=O)O)OC(C)(C)O[C@@H]3[C@@H]2O1", "outcome": "inactive"}
{"COMPOUND": "C[C@@H]1C(SC2Cn3cnc[n+]3C2)=C(C(=O)[O-])N2C(=O)[C@H]([C@@H](C)O)[C@@H]12 (stereo partly drawn)", "outcome": "inactive"}
{"COMPOUND": "C=CCn1c(=O)n(C2OC(CO)C(O)C2O)c2nc(N)[nH]c(=O)c21 (stereo not drawn)", "outcome": "inactive"}
